System: PXR homodimer (NR concentration 270 nM)
Test: PBM binding z-score (relative to random genomic background probes); higher = stronger binding; sequences stand for … in GC…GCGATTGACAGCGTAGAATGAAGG

SEQUENCE_CODE	PBM binding z-score
TCTATTAGTTGATTAGGGCAACCGCAACAGCGGA	0.274
ATCTCTAGGTAACCAAGTTCAGTCAATGCCGAAC	2.93
TCATATAGGTACATGCTAGGTGAAAGTCCGATCT	0.248
AGTCAAAGTTCACTAGGGAACGTAAGATTCAGCT	2.56
TCGAGTAGGTTACCGATGGGGCATTCAGCTTTCT	-0.759
GCTTACGGGTCAGAGGTTATAGCATGAATAGAAT	0.491
ACTCGGAAGACAAAGGTCAGAGCTACGCCAGTGA	0.247
CCTTACGGTTCAAGGTTATAGCACGGGTGGTACG	1.34
CCTGCTAGGTCGTGGTCAGCTAATCTACAGTATG	-0.22
ACTATTAGTCGACTTAGGGCAACCGATACGACGC	-0.351
TGAATGAGGTTATAAGATCAGGGATCGTTGCAAA	0.0722
TTATCAAGGTGAGCTGAGGTCGTTGATCCAACTC	0.706
CGTCCAGGGTCAGAGAGGTCAGTGAATGCCGAGT	9.1
TCATATAGCTAAACAGGTGAAAGTCCGTAAGTTA	-0.231
CAAACTAGGTCACAGGAAGGTCAAAGTCCGCATG	1.51
GCTAGTTGGTGAGTAAAAGGTCACACACCGGTCG	0.986
TTACCAAGGTGAGCTGAGCTCGTTGATCCAACTC	-0.854
ATCTCTAGGTAAAGATAGTTCTGTGAATGCAAAT	0.184
TCGAGTAGGTTTGTCGGGGCATTCAGCCAACATA	-0.236
TCTATTAGATGAAGGGCAACCGACGAGTCCGTTT	1.11
TCATATACGTAAATGCTAGGTGAAAGTCCGATCT	0.25
TCGGCTAGGTCAGTTGGTCAGCTAACGAGCTGCC	-0.113
CTCGAAAGGTCGGTTGATGTGAGTATACGGATAA	0.216
ATCGAAAGGTCGAGGTGATTATAGAGAAAGGGAA	0.0251
CCAGACGGGTGAGAAGGTAACTCAGCCTCGATTA	-0.553
GATACAGGGTCAAGGCCAGACTACGCGTATTGAT	0.191
